# TESTED_ON: human CYP11B1 (Homo sapiens, UniProt P15538)
# Sequence (P15538 25-503): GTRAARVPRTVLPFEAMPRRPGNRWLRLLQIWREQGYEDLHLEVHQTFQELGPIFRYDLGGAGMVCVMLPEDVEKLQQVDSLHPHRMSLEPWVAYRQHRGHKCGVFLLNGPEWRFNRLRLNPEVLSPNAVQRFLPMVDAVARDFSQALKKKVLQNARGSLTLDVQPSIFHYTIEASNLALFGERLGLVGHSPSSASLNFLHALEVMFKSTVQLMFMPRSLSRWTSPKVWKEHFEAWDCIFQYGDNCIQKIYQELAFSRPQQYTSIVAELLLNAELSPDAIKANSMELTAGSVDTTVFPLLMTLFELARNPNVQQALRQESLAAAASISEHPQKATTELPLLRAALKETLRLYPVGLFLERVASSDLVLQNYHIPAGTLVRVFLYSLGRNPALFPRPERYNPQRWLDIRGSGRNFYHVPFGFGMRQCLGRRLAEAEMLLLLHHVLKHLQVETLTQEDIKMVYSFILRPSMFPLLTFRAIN
# TEST_PROTOCOL: G-402 cellular enzyme assay, human CYP11B1 (cortisol release, HTRF)
# EXPERIMENTAL_CONTEXT: G-402 cells, 1 μM Deoxycortisol
We begin with a simple list: items and their reported log10(EC50).
Please interpret these as log10 of EC50 where EC50 is in nM.

GET /values?readout=log10(EC50)&item= CCC(=O)NCc1cncc(N2C(=O)c3ccc(Cl)cc3C2(C)C)c1 [Example 397]
3.90

GET /values?readout=log10(EC50)&item= CS(=O)(=O)NCc1cncc(N2C(=O)c3ccc(F)cc3C23CC3)c1 [Example 404]
3.74

---

# TESTED_ON: human CYP11B1 (Homo sapiens, UniProt P15538)
# TEST_PROTOCOL: G-402 cellular enzyme assay, human CYP11B1 (cortisol release, HTRF)
# EXPERIMENTAL_CONTEXT: G-402 cells, 1 μM Deoxycortisol
REPORTED_PROPERTY: EC50

Previously resolved entries follow.
compound=Cn1nccc1Cc1cncc(N2CCc3cc(Cl)ccc3C2=O)c1 tested_on="human CYP11B1 (Homo sapiens, UniProt P15538)" result="18.9 nM"
compound=COC(=O)[C@@H]1CCCN1Cc1cncc(N2CCc3cc(Cl)ccc3C2=O)c1 tested_on="human CYP11B1 (Homo sapiens, UniProt P15538)" result="4830 nM"
compound=CCC(=O)N1CCN(c2cncc(N3C(=O)c4ccc(Cl)cc4C3(C)C)c2)CC1 tested_on="human CYP11B1 (Homo sapiens, UniProt P15538)" result="106 nM"

GET /values?readout=EC50&item= CC1(C)c2cc(F)ccc2C(=O)N1c1cncc(CNS(C)(=O)=O)c1
1930 nM

GET /values?readout=EC50&item= O=C1c2ccc(Cl)cc2CCN1c1cncc(Cn2ccc3c(F)cccc32)c1
211 nM

GET /values?readout=EC50&item= O=C1c2ccc(Cl)cc2CCN1c1cncc(CN2CCS(=O)(=O)CC2)c1
337 nM

GET /values?readout=EC50&item= CC[C@@H]1c2cc(Cl)ccc2C(=O)N1c1cncc2c1CC[C@H]2NC(C)=O (single isomer, unassigned)
1500 nM

GET /values?readout=EC50&item= CCC1c2ccc(Cl)cc2C(=O)N1c1cncc(CNS(C)(=O)=O)c1 (single isomer, unassigned) [Example 407]
20700 nM

GET /values?readout=EC50&item= O=C1c2ccc(Cl)cc2CCN1c1cncc(Cn2ccnc2)c1
70.4 nM

GET /values?readout=EC50&item= CC1(C)c2cc(Cl)ccc2C(=O)N1c1cncc(Cn2cccn2)c1
370 nM

GET /values?readout=EC50&item= CNC(=O)COc1cncc(N2CCc3cc(Cl)ccc3C2=O)c1
32500 nM

GET /values?readout=EC50&item= Cn1nccc1-c1cncc(N2CCc3cc(Cl)ccc3C2=O)c1Cl
140 nM

GET /values?readout=EC50&item= O=C1c2ccc(Cl)cc2CCN1c1cccnn1
2460 nM

GET /values?readout=EC50&item= CN1CCN(Cc2cncc(N3CCc4cc(Cl)ccc4C3=O)c2)C1=O
4460 nM

GET /values?readout=EC50&item= O=C1c2ccc(Cl)cc2CCN1c1cncc(COc2ccccc2F)c1
282 nM

GET /values?readout=EC50&item= Cn1nccc1-c1cncc(N2CCc3cc(Cl)ccc3C2=O)c1
5990 nM

GET /values?readout=EC50&item= CC(c1cncc(N2CCc3cc(Cl)ccc3C2=O)c1)n1cccn1 (stereo not drawn)
251 nM

GET /values?readout=EC50&item= O=C1c2ccc(Cl)cc2CCN1c1cncc(-c2cnoc2)c1
3340 nM

---

# TESTED_ON: UniProt P19099
# Sequence (P19099 25-503): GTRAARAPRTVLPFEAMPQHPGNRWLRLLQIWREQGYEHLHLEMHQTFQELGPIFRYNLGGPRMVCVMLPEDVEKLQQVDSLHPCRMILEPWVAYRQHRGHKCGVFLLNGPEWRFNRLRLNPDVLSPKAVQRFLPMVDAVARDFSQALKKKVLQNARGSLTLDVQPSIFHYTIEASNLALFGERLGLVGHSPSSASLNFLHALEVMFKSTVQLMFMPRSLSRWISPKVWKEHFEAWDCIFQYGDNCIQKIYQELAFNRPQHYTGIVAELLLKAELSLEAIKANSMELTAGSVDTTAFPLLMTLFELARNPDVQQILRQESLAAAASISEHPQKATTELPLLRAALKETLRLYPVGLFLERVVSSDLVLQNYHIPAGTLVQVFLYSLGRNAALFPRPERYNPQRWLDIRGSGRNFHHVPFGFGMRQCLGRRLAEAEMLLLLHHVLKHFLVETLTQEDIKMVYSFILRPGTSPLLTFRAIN
# TEST_PROTOCOL: G-402 cellular enzyme assay, human CYP11B2 (aldosterone release, HTRF)
# EXPERIMENTAL_CONTEXT: G-402 cells, 1 μM Deoxycorticosterone
Hi! Could you tag entries with EC50 below 30 nM as True, and those at or above as False? Much appreciated.

Consider the worked cases shown below.
compound="O=C1c2ccc(Cl)cc2CCN1c1cncc(N2CCC[C@H]2CO)c1 [Example 135]" class_name=False
compound="CCS(=O)(=O)NC1CCc2c1cncc2N1Cc2cc(Cl)ccc2C1=O (single isomer, unassigned) [Example 337]" class_name=False
compound="O=C1c2ccc(Cl)cc2CN1c1cccnc1 [Example 108]" class_name=False

I wonder whether O=C1c2ccc(Cl)cc2CN1c1cncc2c1CCC[C@H]2O [Example 341] has EC50 below 30 nM. Can you tell?
False

I wonder whether CCC1c2cc(Cl)ccc2C(=O)N1c1cncc(-c2ccnn2C)c1 (single isomer, unassigned) [Example 429] has EC50 below 30 nM. Can you tell?
True

I wonder whether CC1(C)c2ccc(F)cc2C(=O)N1c1cncc(CNS(C)(=O)=O)c1 [Example 406] has EC50 below 30 nM. Can you tell?
False

I wonder whether CC(=O)N1CC[C@@H](Oc2cncc(N3C(=O)c4ccc(Cl)cc4C3(C)C)c2)C1 [Example 442] has EC50 below 30 nM. Can you tell?
True

I wonder whether O=C1c2ccc(Cl)cc2C(C2CC2)N1c1cncc(F)c1 (centres unmarked) [Example 297] has EC50 below 30 nM. Can you tell?
False

---

# TESTED_ON: human CYP11B2 (Homo sapiens)
# TEST_PROTOCOL: G-402 cellular enzyme assay, human CYP11B2 (aldosterone release, HTRF)
# EXPERIMENTAL_CONTEXT: G-402 cells, 1 μM Deoxycorticosterone
We begin with a simple list: items and their reported pEC50.
Interpret pEC50 as the negative base-10 log of the concentration measured in mol/L.

Previously resolved entries follow.
compound=O=C1c2ccc(Cl)cc2CCN1c1cncc2cccc([N+](=O)[O-])c12 recorded_number=6.58
compound="CCC1c2cc(Cl)ccc2C(=O)N1c1cncc2c1CCCC2NS(C)(=O)=O (mixture of isomers)" recorded_number=7.58
compound=CC1(C)c2cc(Cl)ccc2C(=O)N1c1cncc(CN2CCCCS2(=O)=O)c1 recorded_number=8.26

Attention now shifts to the item below.
GET /values?readout=pEC50&item= NC(=O)COc1cncc(N2CCc3cc(Cl)ccc3C2=O)c1
6.24

---

We begin with a simple list: items and their reported pEC50.
# TESTED_ON: human CYP11B2 (Homo sapiens, UniProt P19099)
# Sequence (P19099 25-503): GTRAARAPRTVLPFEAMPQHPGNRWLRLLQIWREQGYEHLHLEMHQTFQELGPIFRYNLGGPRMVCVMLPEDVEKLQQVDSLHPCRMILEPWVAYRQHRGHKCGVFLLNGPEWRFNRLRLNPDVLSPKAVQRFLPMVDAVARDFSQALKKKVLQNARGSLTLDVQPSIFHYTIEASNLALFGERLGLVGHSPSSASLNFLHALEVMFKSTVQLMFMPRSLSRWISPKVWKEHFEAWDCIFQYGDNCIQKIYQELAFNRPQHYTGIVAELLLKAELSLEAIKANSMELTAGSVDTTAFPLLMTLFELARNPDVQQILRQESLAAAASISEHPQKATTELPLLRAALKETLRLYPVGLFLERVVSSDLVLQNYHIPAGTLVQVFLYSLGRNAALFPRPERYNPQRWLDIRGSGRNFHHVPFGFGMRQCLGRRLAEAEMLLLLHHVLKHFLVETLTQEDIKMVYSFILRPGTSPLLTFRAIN
# TEST_PROTOCOL: G-402 cellular enzyme assay, human CYP11B2 (aldosterone release, HTRF)
# EXPERIMENTAL_CONTEXT: G-402 cells, 1 μM Deoxycorticosterone
# Source text: Herein we identified the use of the G-402 cell line as a host cell to ectopically express (transiently or stably) enzymes of the CYP11 family. […] Importantly the identified cell line G-402 expresses co-factors (adrenodoxin and adrenodoxin reductase) important for the activity of the CYP11 family and no relevant enzyme activity of the CYP11 family (in comparison to H295R cells) was detected in these cells. […]
Interpret pEC50 as the negative base-10 log of the concentration measured in mol/L.

Previously resolved entries follow.
molecule="O=C1c2ccc(Cl)cc2CCN1c1cncc(-c2cccc(C(F)(F)F)c2)c1 [Example 236]" recorded_number=6.87
molecule="CC1(C)c2cc(Cl)ccc2C(=O)N1c1cncc(CN2CCCS2(=O)=O)c1 [Example 409]" recorded_number=8.16
molecule="O=C1c2ccc(Cl)cc2CCN1c1cncc(COc2ccccc2F)c1 [Example 199]" recorded_number=6.98
molecule="O=C(c1cncc(N2CCc3cc(Cl)ccc3C2=O)c1)N1CCC(O)C1 (centres unmarked) [Example 40]" recorded_number=5.77
molecule="CC1(C)c2cc(C#N)ccc2C(=O)N1c1cncc(CNS(C)(=O)=O)c1 [Example 402]" recorded_number=7.47
molecule="O=C1CCCN1Cc1cncc(N2Cc3cc(Cl)ccc3C2=O)c1 [Example 112]" recorded_number=6.17

GET /values?readout=pEC50&item= O=C1c2ccc(Cl)cc2CCN1c1cncc(Cn2ccnc2CO)c1 [Example 163]
6.67

GET /values?readout=pEC50&item= O=C1c2ccc(Cl)cc2CCN1c1cncc(CNc2ccc(F)cc2)c1 [Example 258]
8.43

GET /values?readout=pEC50&item= CCS(=O)(=O)N1CC[C@@H](Oc2cncc(N3C(=O)c4ccc(Cl)cc4C3(C)C)c2)C1 [Example 447]
8.72

GET /values?readout=pEC50&item= CC(c1cncc(N2CCc3cc(Cl)ccc3C2=O)c1)N1CCOC1=O (centres unmarked) [Example 275]
6.14

GET /values?readout=pEC50&item= CC1(C)c2nc(Cl)ccc2C(=O)N1c1cncc(OC(F)F)c1 [Example 293]
7.79

GET /values?readout=pEC50&item= CS(=O)(=O)NCc1cncc(N2C(=O)c3cc(F)ccc3C23CC3)c1 [Example 401]
6.44

GET /values?readout=pEC50&item= CC(C)(O)c1cncc(N2CCc3cc(Cl)ccc3C2=O)c1 [Example 12]
7.45

GET /values?readout=pEC50&item= CCC(=O)N[C@H]1CCCc2c1cncc2N1C(=O)c2ccc(Cl)cc2[C@@H]1CC (single isomer, unassigned) [Example 351]
5.44

GET /values?readout=pEC50&item= Cc1c(-c2cncc(N3CCc4cc(Cl)ccc4C3=O)c2)cnn1C [Example 423]
7.20

GET /values?readout=pEC50&item= CS(=O)(=O)NCc1cncc(N2CCc3cc(Cl)ccc3C2=O)c1 [Example 152]
6.53

GET /values?readout=pEC50&item= CC1(C)c2cc(Cl)ccc2C(=O)N1c1cnccc1Cl [Example 285]
8.12

GET /values?readout=pEC50&item= CC1(C)c2cc(Cl)ccc2C(=O)N1c1cncc(Cn2ccc(N)n2)c1 [Example 380]
7.44

GET /values?readout=pEC50&item= O=C1c2ccc(Cl)cc2CCN1c1cncc(-c2cccc(OC(F)(F)F)c2)c1 [Example 237]
6.69

GET /values?readout=pEC50&item= CCC1c2cc(Cl)ccc2C(=O)N1c1cncc(-c2ccnn2C)c1 (single isomer, unassigned) [Example 428]
7.70

GET /values?readout=pEC50&item= O=C(Nc1cncc(N2CCc3cc(Cl)ccc3C2=O)c1)c1ccc(F)cc1 [Example 249]
5.49

GET /values?readout=pEC50&item= O=C1c2ccc(Cl)cc2CCN1c1cncc(Cn2ccc3ccc(F)cc32)c1 [Example 184]
7.75

GET /values?readout=pEC50&item= CC(=O)N1CCC(c2cncc(N3C(=O)c4ccc(Cl)cc4C3(C)C)c2)C1 (centres unmarked) [Example 460]
7.91

GET /values?readout=pEC50&item= Cc1ccncc1N1C(=O)c2ccc(Cl)cc2C1C (centres unmarked) [Example 121]
8.15

GET /values?readout=pEC50&item= CC1(C)c2cc(Cl)ccc2C(=O)N1c1cncc(CN2CCOC2=O)c1 [Example 412]
7.33

GET /values?readout=pEC50&item= CC(=O)NC1CCc2c1cncc2N1CCc2cc(Cl)ccc2C1=O (single isomer, unassigned) [Example 332]
4.83

GET /values?readout=pEC50&item= CC1(C)c2cc(Cl)ccc2C(=O)N1c1cncc(N2CCN(S(C)(=O)=O)CC2)c1 [Example 457]
8.74

GET /values?readout=pEC50&item= COc1ccc2c(n1)C(C)(C)N(c1cccnc1)C2=O [Example 300]
6.67
